test system: PPARg:RXRa IVT, anti-PPARg (NR concentration 270 nM, RXRa partner concentration 90 nM); experiment: PBM binding z-score (relative to random genomic background probes); higher = stronger binding; sequences stand for … in GC…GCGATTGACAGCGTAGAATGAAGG
Consider the following sequences; for each one, report its PBM binding z-score.

Use the examples below as a reference point.
- Item Sequence: "TCTAGTAGATCAACAGGAGGTTAAGAAAGATCGA"
  PBM binding z-score: 0.911
- Item Sequence: "CCTACTGGGCCAAAAAGGTCATTGTTGCCGATAA"
  PBM binding z-score: 3.99
- Item Sequence: "CATACGGGGTCAGCTAGGCCAGAGTAGGGACGGC"
  PBM binding z-score: 4.45

Hi there! I need PBM binding z-score for each item below, if you can.
1. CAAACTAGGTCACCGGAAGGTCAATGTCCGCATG
2. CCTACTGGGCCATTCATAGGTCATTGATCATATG
3. CCTACTGGGCCACGAAAGCTCATTGATTCAGTGA
4. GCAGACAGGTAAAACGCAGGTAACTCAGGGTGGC
5. AGAACGAGTGCAATGAGTTGATAGCACGGGTGGC
6. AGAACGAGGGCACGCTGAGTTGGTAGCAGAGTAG
7. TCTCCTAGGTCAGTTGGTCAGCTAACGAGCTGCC

### Response
8.99
3.82
5.08
-0.804
-0.173
3.68
3.32

Answer for every listed entry: what is its PBM binding z-score? The entries follow.
1. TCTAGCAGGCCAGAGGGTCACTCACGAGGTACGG
2. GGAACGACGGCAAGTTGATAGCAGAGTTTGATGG

### Response
1. 0.783
2. -0.312

###

system: THRa:RXRa (NR concentration 90 nM, RXRa partner concentration 90 nM); assay: PBM binding z-score (relative to random genomic background probes); higher = stronger binding; sequences stand for … in GC…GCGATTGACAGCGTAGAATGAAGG
Test Readout: PBM binding z-score
Give bare numbers.

// solved cases for PBM binding z-score follow
- Item Sequence: "CGAACTAGGTCATCCAGGACAGTAAATACATTGA"
  PBM binding z-score: 3.58
- Item Sequence: "GGATCGAGGGCAAGTTGATAGCAGAGTTTGATGG"
  PBM binding z-score: 1.26
- Item Sequence: "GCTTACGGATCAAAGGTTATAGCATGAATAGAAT"
  PBM binding z-score: 1.64
- Item Sequence: "ACTATTAGTTGACTTAGGGCATCCGATACGACGC"
  PBM binding z-score: 0.97
- Item Sequence: "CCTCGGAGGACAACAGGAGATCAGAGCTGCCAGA"
  PBM binding z-score: 0.396
- Item Sequence: "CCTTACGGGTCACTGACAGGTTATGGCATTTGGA"
  PBM binding z-score: 2.9
- Item Sequence: "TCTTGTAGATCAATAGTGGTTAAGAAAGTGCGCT"
  PBM binding z-score: 0.0334
- Item Sequence: "AGAATGAGGTTAAGATCAGTGAAACAGAATACAT"
  PBM binding z-score: 2.31

Value sought for every listed sequence: PBM binding z-score.
1. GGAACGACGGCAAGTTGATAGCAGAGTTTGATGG
2. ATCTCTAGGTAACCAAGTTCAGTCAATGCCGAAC

### Response
1. -0.769
2. 1.86

# batch: return PBM binding z-score for each of the 2 sequences below
1. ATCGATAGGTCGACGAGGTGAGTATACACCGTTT
2. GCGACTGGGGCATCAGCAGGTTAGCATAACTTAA

### Response
1. 2.59
2. 0.204
